assay_metric: melting point (°C)
Give the quantity in °C, number only.

Example entries and their recorded answers appear below.
                                   compound   assay_metric  observed_measurement
0  CC(C(=O)O)C1CCC2C3CCC4CC(=O)CCC4(C)C3CCC12C (configuration not stated)  melting point                   253
1                  COC(=O)C1=C(C)c2ccccc2C1  melting point                    66
2                     O=CC1=Cc2cc(O)ccc2OC1  melting point                   165

Provide one value: measured melting point of "Cc1ccc(Oc2ccc([N+](=O)[O-])cc2)cc1"
69

Provide one value: measured melting point of "CSc1nnc(C(C)(C)C)c(=O)n1N=CC(C)C"
159

Provide one value: measured melting point of "Cc1cc(=O)oc2cc(O)c(O)cc12"
275

Provide one value: measured melting point of O=C(Cc1ccccc1)C(c1ccccc1)N1CCCCC1 (configuration not stated)
137

Provide one value: measured melting point of N=C(N)NCCCC(NC(=O)c1ccccc1)C(=O)O (configuration not stated)
285

* * *

assay_metric: melting point (°C)
Give the quantity in °C, number only.

In [3]: df
Out[3]:
                                  compound  display_unit  observed_measurement
0  COc1ccc(-c2csc(/C(C#N)=C\c3cccs3)n2)cc1            °C                   140

Provide one value: measured melting point of "O=C(c1ccccc1)c1ccc(F)cc1"
47

Provide one value: measured melting point of "O=C(Cl)c1cn(S(=O)(=O)c2ccccc2)c2ccccc12"
144

Provide one value: measured melting point of "CC(C)OC(N)=O"
93

Provide one value: measured melting point of "O=C(O)c1c(Cl)c(Cl)c(Cl)c(Cl)c1C(=O)Nc1cccc(Cl)c1Cl"
198

Provide one value: measured melting point of "N#Cc1ccnc(N)c1"
150

Provide one value: measured melting point of "COC(=O)CS"
-3

Provide one value: measured melting point of "Cc1cc(N)c([N+](=O)[O-])cc1C"
141

Provide one value: measured melting point of "Cc1cccc(C(=O)C(=O)c2ccccc2)n1"
76.8

* * *

I'd appreciate it if you marked entries fulfilled when melting point is lower than 100 °C and not fulfilled when it is not.

Below are worked cases with known answers.
            molecule  answer_label
0   O=c1ccoc2ccccc12     fulfilled
1  CCCCCCCCCCC(=O)CC     fulfilled

Field: below-cutoff. Rule: recorded melting point strictly less than 100 °C. Subject: "O=C(O)c1nc(Cl)c(Cl)c(Cl)c1Cl"
not fulfilled

Field: below-cutoff. Rule: recorded melting point strictly less than 100 °C. Subject: c1ccc(C2(c3ccccc3)CC2C2=NCCN2)cc1 (configuration not stated)
not fulfilled

Field: below-cutoff. Rule: recorded melting point strictly less than 100 °C. Subject: "O=C(CCCl)NCc1ccccc1"
fulfilled

* * *

# Lookup of reported melting point keyed by entry
Give the quantity in °C, number only.

>>> df
                                   compound  observed_measurement
0                        O=C1CC(=O)NC(=O)N1                   248
1                         O=C(O)CCc1ccccc1O                    87
2         O=[N+]([O-])c1ccccc1/C=C/c1ccccn1                   214
3                 O=[N+]([O-])c1ccc2ncsc2c1                   175
4  CCCOc1ccc2c(c1)C(c1ccc(OC)cc1OCC(=O)O)C(C(=O)O)C2c1ccc2c(c1)OCO2 (stereo unspecified)                   254

Provide one value: measured melting point of "Cc1cc(C(F)(C(F)(F)F)C(F)(F)F)ccc1NC(=O)c1cccc(I)c1C(=O)NC(C)(C)CS(C)(=O)=O"
218

Provide one value: measured melting point of "O=C(O)CC(=O)CC(=O)O"
133

Provide one value: measured melting point of "BrCc1c(CBr)c(CBr)c(CBr)c(CBr)c1CBr"
292

Provide one value: measured melting point of "CC(C)CC1CCCCC1"
-95

Provide one value: measured melting point of "COc1cc(F)c(OC)cc1F"
121

Provide one value: measured melting point of "Cc1cccnc1C(=O)O"
119

Provide one value: measured melting point of "O=[N+]([O-])c1ccccc1-c1onc(-c2ccccc2)c1-c1ccccc1"
127

Provide one value: measured melting point of "CCS(=O)(=O)CCn1c([N+](=O)[O-])cnc1C"
128

Provide one value: measured melting point of "Nc1nc(=O)c2[nH]nnc2[nH]1"
300

Provide one value: measured melting point of "FC(F)(F)c1nnc(S)n1N=Cc1ccc(Cl)cc1"
255

Provide one value: measured melting point of "O=C(O)CN(CC(=O)O)CC(=O)O"
245

* * *

# Lookup of reported melting point keyed by entry

>>> print(df.to_string())
                                   compound  observed_measurement
0                      N#Cc1ccc(CC(=O)O)cc1                151 °C
1                   NNC(=O)c1snnc1-c1ccccc1         129 to 130 °C
2  O=C(C1=NOC2C(=O)N(c3ccc(F)cc3)C(=O)C12)c1ccc(Cl)cc1 (stereo not given)                151 °C
3                                O=Cc1csnn1           85 to 87 °C
4                    Cc1occc1C(=O)Nc1ccccc1                110 °C

Provide one value: measured melting point of "BrCCCCCBr"
-34 °C

Provide one value: measured melting point of "Clc1ccc(O[Si]23OCCN(CCO2)CCO3)cc1"
166 °C

Provide one value: measured melting point of "O=C1NC(=O)C(=NNc2ccccc2[N+](=O)[O-])C(=O)N1"
290 °C

Provide one value: measured melting point of C#CC1(O)CCC2C3CCC4CC5(CCC4(C)C3CCC21C)OCCO5 (stereo not given)
197 to 199 °C

Provide one value: measured melting point of "COc1cc(O)c2c(=O)c(O)c(-c3ccc(OCc4ccccc4)c(O)c3)oc2c1"
208 °C

Provide one value: measured melting point of "Oc1cc(O)cc(-c2cc(O)cc(O)c2)c1"
310 °C

Provide one value: measured melting point of "O=Cc1cccc2cccc([N+](=O)[O-])c12"
125 °C

Provide one value: measured melting point of "CC(C)(C)OC(=O)N[C@@H](CCCCN)C(=O)O"
205 °C

Provide one value: measured melting point of CCOC(=O)C(Br)CCC(Br)C(=O)OCC (stereo not given)
66 to 68 °C

Provide one value: measured melting point of "CCCCCCCCCc1ccc(OCCOCCO)cc1"
43 °C

Provide one value: measured melting point of "N#Cc1ccccc1I"
55 °C

* * *

Okay, here is how we bin by melting point: low value = under 40 °C, medium value = from 40 °C up to 100 °C, high value = 100 °C and over

Below are worked cases with known answers.
>>> print(df.to_string())
                    compound  answer_label
0         COC(=O)c1cncc(C)c1  medium value
1         CC(=O)Nc1ccc(O)cc1    high value
2   COc1cc(C(N)=O)cc(OC)c1OC    high value
3  CC(C)=CCCC(C)=CCCC(C)=CCO     low value
4         C#CCCCCCCCCCCCCCCC     low value

State the class of the compound shown: "C=COC(C)C"
low value

State the class of the compound shown: CSCCC(NC(C)=O)C(=O)O (racemic)
high value

State the class of the compound shown: "CCCCCCc1ccc(O)cc1"
low value

State the class of the compound shown: CCOP(=S)(OCC)SC1OCCOC1SP(=S)(OCC)OCC (configuration not stated)
low value

State the class of the compound shown: "O=[N+]([O-])c1ccc(Nc2ccccc2O)c([N+](=O)[O-])c1"
high value

State the class of the compound shown: "CNCCCN1c2ccccc2CCc2ccccc21"
low value

State the class of the compound shown: "CCOC(=O)c1cc(C)n(C)n1"
medium value

State the class of the compound shown: CC1=C(C)C(O)OC1=O (configuration not stated)
medium value

State the class of the compound shown: "Cc1ncccc1N"
high value

State the class of the compound shown: "COc1cc(C(C)(C)C)c(O)c(C(C)(C)C)c1"
high value

State the class of the compound shown: "COc1ccc(C(=O)NN=C(C)c2c(O)c3ccccc3n(-c3ccccc3)c2=O)cc1"
high value

State the class of the compound shown: "Nc1c(C(=O)O)cccc1[N+](=O)[O-]"
high value

State the class of the compound shown: "CCc1ccc(C(c2ccc(CC)o2)c2cc3c(cc2[N+](=O)[O-])OCCO3)o1"
medium value
